Provenance of the data: ChEMBL document CHEMBL1201862

# Tested on: T47D
# Protocol notes: NCI tumour cell line growth inhibition, 48 h
Calls of active or inactive are those of the source. Rule as the data show it: active = GI50 up to about 1.1 µM and inactive = higher.
Respond using exactly one of the listed classes: active, inactive

Worked set:
| Compound | Target system | Group label |
| --- | --- | --- |
| COc1cc(/C=C2\C[C@H]3[C@@H]4CCc5cc(OCCN6CCCC6)ccc5[C@H]4CC[C@]3(C)C2=O)cc(OC)c1OC | T47D | inactive |
| O=[N+]([O-])c1c2nc3n(c2cc2c1nc1n2CCC1)CCC3 | T47D | inactive |
| CC1=CC[C@@]2(C)[C@@H]([C@@H]1C)[C@H]1CC[C@@H]3[C@@]4(C)CC[C@H](O)C(C)(C)[C@@H]4CC[C@@]3(C)[C@]1(C)C[C@@H]2O | T47D | inactive |

Next compound, please.
Fill in: this test's call for "Cc1cc(C)n(C(=CC(=O)C(Cl)Cl)n2nc(C)cc2C)n1" is ___
inactive

###

# System: M14
# Protocol notes: NCI tumour cell line growth inhibition, 48 h
Active and inactive are the calls of the source. Cut-off read from the data, not from the text of the source: active = GI50 up to about 1.1 µM and inactive = higher. Numbered stars: 1 amine (or outer) side, 2 acyl side, 3 side chain; on linkers, the order of the positions; unused ones are H or OH. Bridge positions count the residues as written; N and C are the ends. Square brackets hold non-standard residues; d marks the D form. Peptide text beside a SMILES is read from it. * marks the point of attachment. ξ: configuration not given here. X33 = O=C(C(CCCCNO[*:3])N[*:1])[*:2]; Fmoc = O=C(OCC1c2ccccc2-c2ccccc21)*; ξW = NC(Cc1c[nH]c2ccccc12)C(=O)O; ξP = O=C(O)C1CCCN1
The reply should name one outcome from T (active), F (inactive)

| Compound | Target system | Group label |
| --- | --- | --- |
| COC(=O)c1ccc(/C=C2\Cc3ccccc3C2=O)cc1 | M14 | F |
| COc1ccc(C2=Cc3nc2c(-c2ccccc2)c2ccc([nH]2)c(-c2ccccc2)c2nc(c(-c4ccccc4)c4ccc([nH]4)c3-c3ccccc3)C=C2)cc1 | M14 | F |
| C/C(=C\CNc1ncnc2c1ncn2CCC#N)CO | M14 | F |
| COC(c1ccccc1)C(c1ccccc1)N1CCOCC1 (stereo not drawn) | M14 | F |
| NC(=O)CNC(=O)C1CCCN1C(=O)C1CCCCNOC(=O)CC[C@@H](NC(=O)OCC2c3ccccc3-c3ccccc32)C(=O)NC(Cc2c[nH]c3ccccc23)C(=O)N1 (stereo partly drawn) (Fmoc-[dE][ξW][X33][ξP]G-NH2; ester 1-3) | M14 | F |
| CCCC(=O)OCC1OC(n2cc(F)c(=O)[nH]c2=O)CC1O (stereo not drawn) | M14 | T |
| O=C(/C=C/c1ccc(O)c([N+](=O)[O-])c1)CC(=O)/C=C/c1ccc(O)c([N+](=O)[O-])c1 | M14 | F |

Lab note: next compound to report on.
Field: outcome | Entry: "COc1cc(NC(C)=O)c2[nH]c3c(C)cc(NC(C)=O)c(C)c3c2c1"
F

###

# System: HCT-15
hey, just use y if measured GI50 is less than 20 µM, otherwise n

| Molecule | Group label |
| --- | --- |
| C[N+](C)(C)CC(=O)N/N=C(\CCC(=O)NCCc1ccccc1)CC(=O)c1ccccc1 | n |

# check: GI50 < 20 µM for CC(C)=CCc1c(O)cc(O)c2c1OC(c1ccc(O)cc1)C(O)C2=O (stereo not given)
n

Identify whether the molecule OCC(O)C(OC1OC(CO)C(O)C(O)C1O)c1nn(-c2ccc(F)cc2)c2nc3cc(Cl)c(Cl)cc3cc12 (stereo not given) records GI50 below 20 µM.
n
